- TARGET ENTITY: ERK5 (Homo sapiens)
- Construct: MEF2-luciferase reporter
- METHOD SUMMARY: Inhibition of Cellular ERK5 Activity (cell-based assay, MEF2 luciferase reporter in SN12C cells)
- CONDITION NOTES: renal cancer cell line SN12C, doxycycline-induced MEKSDD, mean where repeated
READOUT: IC50 (nM)

- COMPOUND: "Nc1cc(OC(F)(F)F)ccc1C(=O)N1CCC(n2c(=O)[nH]c3ncc(C4CC5CCC4C5)cc32)CC1 (stereo not drawn)"
  MEASUREMENT: 167

a = O=C(c1ccc(OC(F)(F)F)cc1)N1CCC(n2c(=O)[nH]c3ncc(CC4COC4)cc32)CC1
b = O=C(c1ccc(OC(F)(F)F)cc1)N1CCC(n2c(=O)[nH]c3ncc([C@H]4CCCC[C@@H](O)C4)cc32)CC1 (racemic)
Data request: Identify the entry with the smaller IC50: a or b . To answer, give the label that identifies your chosen option.
Data returned: a

---

- TARGET ENTITY: ERK5 (Homo sapiens, UniProt Q13164)
- Construct: MEF2-luciferase reporter
- Sequence (Q13164 whole entry): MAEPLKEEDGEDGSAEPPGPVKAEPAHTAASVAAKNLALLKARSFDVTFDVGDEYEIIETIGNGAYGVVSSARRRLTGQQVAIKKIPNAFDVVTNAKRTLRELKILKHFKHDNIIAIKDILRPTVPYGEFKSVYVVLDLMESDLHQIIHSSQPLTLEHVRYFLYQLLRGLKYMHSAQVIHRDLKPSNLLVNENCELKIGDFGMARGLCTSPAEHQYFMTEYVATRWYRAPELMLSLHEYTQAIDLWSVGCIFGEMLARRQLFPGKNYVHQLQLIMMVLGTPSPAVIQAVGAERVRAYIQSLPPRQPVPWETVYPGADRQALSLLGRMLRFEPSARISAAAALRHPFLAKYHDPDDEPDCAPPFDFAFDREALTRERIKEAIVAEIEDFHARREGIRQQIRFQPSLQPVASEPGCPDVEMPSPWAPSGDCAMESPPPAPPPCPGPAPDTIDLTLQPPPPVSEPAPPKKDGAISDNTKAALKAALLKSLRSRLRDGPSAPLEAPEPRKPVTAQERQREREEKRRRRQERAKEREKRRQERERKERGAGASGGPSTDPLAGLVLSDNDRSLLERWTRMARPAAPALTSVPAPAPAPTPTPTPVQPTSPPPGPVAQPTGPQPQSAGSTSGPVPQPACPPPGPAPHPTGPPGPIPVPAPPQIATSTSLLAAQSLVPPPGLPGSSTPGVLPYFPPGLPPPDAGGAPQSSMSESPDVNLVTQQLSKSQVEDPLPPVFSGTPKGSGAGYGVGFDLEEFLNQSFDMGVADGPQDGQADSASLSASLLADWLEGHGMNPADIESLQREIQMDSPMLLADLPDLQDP
- METHOD SUMMARY: Inhibition of Cellular ERK5 Activity (cell-based assay, MEF2 luciferase reporter in SN12C cells)
- CONDITION NOTES: renal cancer cell line SN12C, doxycycline-induced MEKSDD, mean where repeated
READOUT: IC50 (nM)

Here is how some molecules turned out for IC50.
- MOLECULE: "CN1CCC(Oc2cnc3[nH]c(=O)n(C4CCN(C(=O)c5ccc(OC(F)(F)F)cc5N)CC4)c3c2)CC1 [Example 7]"
  UNITS OF MEASURE: "nM"
  IC50: 248
- MOLECULE: "Nc1cc(OC(F)(F)F)ccc1C(=O)N1CCC(n2c(=O)[nH]c3ncc(C4CCC(F)(F)CC4)cc32)CC1 [Example 35]"
  UNITS OF MEASURE: "nM"
  IC50: 205

a = CN1CCC(Oc2cnc3[nH]c(=O)n(C4CCN(C(=O)c5ccc(OC(F)(F)F)cc5N)CC4)c3c2)C1 (single isomer, unassigned; isomer 1) [Example 47]
b = O=C(c1ccc(OC(F)(F)F)cc1)N1CCC(n2c(=O)[nH]c3ncc(C4CCCC(=NO)CC4)cc32)CC1 (single isomer, unassigned; isomer 2) [Example 65]
c = O=C(c1ccc(OC(F)(F)F)cc1)N1CCC(n2c(=O)[nH]c3ncc(C4CCCC4)cc32)CC1 [Example 17]
Data request: Given 3 molecules, produce a descending ranking by IC50. Field: ranking. Enter the labels in the order requested.
Data returned: b, a, c
(b: 575 nM, a: 273 nM, c: 178 nM)

---

- TARGET ENTITY: ERK5 (Homo sapiens, UniProt Q13164)
- Construct: MEF2-luciferase reporter
- METHOD SUMMARY: Inhibition of Cellular ERK5 Activity (cell-based assay, MEF2 luciferase reporter in SN12C cells)
- CONDITION NOTES: renal cancer cell line SN12C, doxycycline-induced MEKSDD, mean where repeated
READOUT: IC50 (nM)

Here is how some compounds turned out for IC50.
- COMPOUND: "O=C(c1ccc(OC(F)(F)F)cc1)N1CCC(n2c(=O)[nH]c3ncc(C4CCOCC4)cc32)CC1"
  READOUT: "IC50"
  MEASUREMENT: 152
- COMPOUND: "Nc1cc(OC(F)(F)F)ccc1C(=O)N1CCC(n2c(=O)[nH]c3ncc(C4CC5(CC(F)C5)C4)cc32)CC1 (stereo not drawn)"
  READOUT: "IC50"
  MEASUREMENT: 42

1 = O=C(c1ccc(OC(F)(F)F)cc1)N1CCC(n2c(=O)[nH]c3ncc([C@@H]4CCC[C@@H](O)CC4)cc32)CC1 (racemic)
2 = O=C(c1ccc(OC(F)(F)F)cc1)N1CCC(n2c(=O)[nH]c3ncc(OC4CCOC4)cc32)CC1 (racemic)
Data request: Which entry has a larger number for IC50, 1 or 2 ? To answer, give the label that identifies your chosen option.
Data returned: 1

I = O=C(c1ccc(OC(F)(F)F)cc1)N1CCC(n2c(=O)[nH]c3ncc([C@H]4CCC[C@@H](O)CC4)cc32)CC1 (racemic)
II = Nc1cc(OC(F)(F)F)ccc1C(=O)N1CCC(n2c(=O)[nH]c3ncc(OC4CCOC4)cc32)CC1 (single isomer, unassigned; isomer 1) [Example 43]
III = Nc1cc(S(F)(F)(F)(F)F)ccc1C(=O)N1CCC(n2c(=O)[nH]c3ncc(C4CCOCC4)cc32)CC1
IV = Nc1cc(OC(F)(F)F)ccc1C(=O)N1CCC(n2c(=O)[nH]c3ncc(OC4CCOC4)cc32)CC1 (single isomer, unassigned; isomer 2) [Example 44]
V = O=C(c1ccc(OC(F)(F)F)cc1)N1CCC(n2c(=O)[nH]c3ncc(N4CCO[C@@H](CO)C4)cc32)CC1
Data request: Let's sort these by IC50, smallest first. Go ahead? Field: ranking. Enter the labels in the order requested.
Data returned: II, III, IV, I, V

A = Nc1cc(OC(F)(F)F)ccc1C(=O)N1CCC(n2c(=O)[nH]c3ncc(C4CCCOC4)cc32)CC1 (racemic)
B = Nc1cc(S(F)(F)(F)(F)F)ccc1C(=O)N1CCC(n2c(=O)[nH]c3ncc(C4CCOCC4)cc32)C1 (racemic)
Data request: Identify the entry with the smaller IC50: A or B . To answer, give the label that identifies your chosen option.
Data returned: A

The reported numbers originate from patent US20260297087A1.
